Numbers sourced from ChEMBL document CHEMBL4229527.

As shown below, each of these molecules has a reported pEC50 value.
- system-tested: UniProt:Q8TDV5
- Sequence (Q8TDV5 whole entry): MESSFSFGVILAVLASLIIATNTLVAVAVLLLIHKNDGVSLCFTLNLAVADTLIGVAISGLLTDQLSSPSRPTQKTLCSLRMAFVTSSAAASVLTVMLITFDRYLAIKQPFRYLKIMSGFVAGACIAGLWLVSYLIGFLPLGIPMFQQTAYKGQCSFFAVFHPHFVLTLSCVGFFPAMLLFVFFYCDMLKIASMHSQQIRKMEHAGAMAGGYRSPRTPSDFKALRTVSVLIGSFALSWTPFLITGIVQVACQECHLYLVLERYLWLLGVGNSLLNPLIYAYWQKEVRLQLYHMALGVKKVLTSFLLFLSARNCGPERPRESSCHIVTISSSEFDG
- protocol: Agonist activity at human GPR119 expressed in CHOK1 cells assessed as cAMP accumulation after 1 hr by ultra LANCE assay
pEC50: −log10 of the molar value.
quantity-name: pEC50

{"molecule": "CC(C)(C)OC(=O)N1CCC(Nc2ncnc3c(Nc4ccc(S(C)(=O)=O)cc4)ncnc23)CC1", "value-comparator": "=", "result-value": 6.46}
{"molecule": "CC(C)(C)OC(=O)N1[C@@H]2CC[C@H]1C[C@H](Nc1ncnc3c(Nc4ccc(S(C)(=O)=O)cc4)ncnc13)C2", "value-comparator": "=", "result-value": 5.85}
{"molecule": "CC(C)(C)OC(=O)N1C[C@@H]2CC[C@H]1C[C@@H]2Nc1ncnc2c(Nc3ccc(S(C)(=O)=O)cc3)ncnc12 (relative stereo)", "value-comparator": "=", "result-value": 6.75}
{"molecule": "CC(C)(C)OC(=O)N1[C@@H]2CC[C@H]1C[C@@H](Nc1ncnc3c(Nc4ccc(S(C)(=O)=O)cc4F)ncnc13)C2", "value-comparator": "=", "result-value": 8.66}
{"molecule": "CC(C)(C)OC(=O)N1[C@@H]2CC[C@H]1C[C@@H](Nc1ncnc3c(Nc4ccc(C#N)cc4F)ncnc13)C2", "value-comparator": "=", "result-value": 8.09}
{"molecule": "CC(C)(C)OC(=O)N1C[C@@H]2CC[C@H]1C[C@H]2Nc1ncnc2c(Nc3ccc(C#N)cc3F)ncnc12 (relative stereo)", "value-comparator": "<", "result-value": 5.00}
